# method-description: Fluorescence of modified Rhodamine dyes (spectrometry and spectrofluorometry)
# Format: physicochemical
# experimental-context: Test Conc. 1 μM, Tris
Kindly state Peak Excitation Wavelength for each of the entries shown.
One number for each entry, in nm.

molecule	reported-property	reported-measurement
COCCOCCOCCOC(=O)Nc1ccc2c(c1)Oc1cc(N)ccc1C21OC(=O)c2ccccc21 (stereo not drawn)	Peak Excitation Wavelength	485
CCCCOCCOC(=O)Nc1ccc2c(c1)Oc1cc(N)ccc1C21OC(=O)c2ccccc21 (stereo not drawn)	Peak Excitation Wavelength	470
CCCCCCN(C)C(=O)Nc1ccc2c(c1)Oc1cc(N)ccc1C21OC(=O)c2ccccc21 (stereo not drawn)	Peak Excitation Wavelength	470
CS(=O)(=O)Nc1ccc2c(c1)Oc1cc(N)ccc1C21OC(=O)c2ccccc21 (stereo not drawn)	Peak Excitation Wavelength	485
CCOC(=O)Nc1ccc2c(c1)Oc1cc(N)ccc1C21OC(=O)c2ccccc21 (stereo not drawn)	Peak Excitation Wavelength	485

Attention now shifts to the item below.
Returns the measured Peak Excitation Wavelength for the input molecule. Input: CCSC(=O)Nc1ccc2c(c1)Oc1cc(N)ccc1C21OC(=O)c2ccccc21 (stereo not drawn) [N-(Ethylthio)carbonyl-Rhodamine 110] 490

###

# target-under-test: recombinant ICE (Homo sapiens)
# Construct: made in house; host or cells: Sf9 insect cells, baculovirus vector
# method-description: Fluorometric enzyme assay, cleavage of substrate by recombinant ICE
# Type: biochemical
# experimental-context: summary of Table 4

compound	efficiency as substrate for ICE
CC(C)[C@H](NC(=O)OCc1ccccc1)C(=O)N[C@@H](C)C(=O)N[C@@H](CC(=O)O)C(=O)Nc1ccc2c(c1)Oc1cc(NC(=O)[C@H](CC(=O)O)NC(=O)[C@H](C)NC(=O)[C@@H](NC(=O)OCc3ccccc3)C(C)C)ccc1C21OC(=O)c2ccccc21 [(Z-VAD)2-Rhodamine 110, (Z-Val-Ala-Asp)2-Rhodamine 110]	efficient substrates
CC(C)[C@H](NC(=O)[C@H](Cc1ccc(O)cc1)NC(=O)OCc1ccccc1)C(=O)N[C@@H](C)C(=O)N[C@@H](CC(=O)O)C(=O)Nc1ccc2c(c1)Oc1cc(NC(=O)[C@H](CC(=O)O)NC(=O)[C@H](C)NC(=O)[C@@H](NC(=O)[C@H](Cc3ccc(O)cc3)NC(=O)OCc3ccccc3)C(C)C)ccc1C21OC(=O)c2ccccc21 [(Z-YVAD)2-Rhodamine 110, (Z-Tyr-Val-Ala-Asp)2-Rhodamine 110]	efficient substrates

###

# target-under-test: recombinant ICE (Homo sapiens, UniProt P29466)
# Construct: made in house; host or cells: Sf9 insect cells, baculovirus vector
# Sequence (P29466 120-297 limits assumed): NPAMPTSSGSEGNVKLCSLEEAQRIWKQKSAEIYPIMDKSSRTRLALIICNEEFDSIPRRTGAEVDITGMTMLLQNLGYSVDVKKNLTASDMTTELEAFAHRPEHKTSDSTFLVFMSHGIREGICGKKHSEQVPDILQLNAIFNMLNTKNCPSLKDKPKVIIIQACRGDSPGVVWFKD
# Sequence (P29466 317-404 limits assumed): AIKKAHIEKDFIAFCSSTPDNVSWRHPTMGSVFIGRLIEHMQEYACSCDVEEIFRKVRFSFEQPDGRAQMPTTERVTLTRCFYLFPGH
# method-description: Fluorometric enzyme assay, cleavage of substrate by recombinant ICE
# Format: biochemical
# experimental-context: summary of Table 4
# Method: The activities of N-(Z-VD)-N′-acetyl-Rhodamine 110, N-(Z-VAD)-N′-acetyl-Rhodamine 110, N-(Z-DEVD)-N′-acetyl-Rhodamine 110 SEQ ID NO:5, N-(Z-YVAD)-N-acetyl-Rhodamine 110 SEQ ID NO:2, (Z-VAD)2-Rhodamine 110 and (Z-YVAD)2-Rhodamine 110 SEQ ID NO:2 as synthetic substrates for recombinant CPP32 and ICE were measured in a fluorometric enzyme assay. […] Using this assay, the Km and Vmax values were determined for each substrate with either CPP32 or ICE. […]

molecule	efficiency as substrate for ICE
CC(=O)Nc1ccc2c(c1)Oc1cc(NC(=O)C(CC(=O)O)NC(=O)C(C)NC(=O)C(NC(=O)OCc3ccccc3)C(C)C)ccc1C21OC(=O)c2ccccc21 (stereo not shown) [N-(Z-VAD)-N′-Ac-Rhodamine 110]	efficient substrates
CC(=O)Nc1ccc2c(c1)Oc1cc(NC(=O)[C@H](CC(=O)O)NC(=O)[C@H](C)NC(=O)[C@@H](NC(=O)[C@H](Cc3ccc(O)cc3)NC(=O)OCc3ccccc3)C(C)C)ccc1C21OC(=O)c2ccccc21 (stereo partly shown) [N-(Z-YVAD)-N′-Ac-Rhodamine 110]	efficient substrates
